Biological target: Cytochrome P450 3A4 (Homo sapiens)
Test: qHTS Assay for Inhibitors and Substrates of Cytochrome P450 3A4 (AID 884); further: nearly all actives have a fitted effect of over 50% in size
Conditions: recombinant CYP3A4, Luciferin-PPXE luminescence; series mostly up to 57.1 µM
Results filed as inconclusive are left out. Activity calls are given as the source filed them. The call rests on the fitted dose curve; in most records, active means well fitted inhibition curve with a large enough effect; inconclusive means small, poorly fitted or top-dose-only effect; inactive means no such curve, though single readings can be large or run the other way.
Possible outcomes: active, inactive

>>> classification("CC(=O)OC1CC[C@]2(C)C(CC[C@@]3(C)C2C(=O)C=C2C4C(C)C(C)CC[C@@]4(C(=O)O)CCC23C)C1(C)C (some centres undefined)")
"active"
>>> classification("CC(C(=O)O)C1CCC2C3CC=C4CC(O)CC[C@@]4(C)C3CC[C@]12C (some centres undefined)")
"inactive"
>>> classification("CC12CCCC(O)(C1)C1CC(C)(C)C1CC2 (centres undefined)")
"inactive"
>>> classification("C=C1C(N)CC2CC1C2(C)C (centres undefined)")
"inactive"
>>> classification("CC1=C2C(O)C(=O)OC3CC4C(C)(C)C(=O)C=C[C@]4(C)C(CC1)[C@@]23C (some centres undefined)")
"inactive"
>>> classification("COc1cc2c(cc1O)C(Cc1ccc(O)cc1)N(C)CC2 (centres undefined)")
"inactive"
>>> classification("O=C(Oc1cc(OC(=O)c2ccccc2)c2c(c1)OC(c1ccc(OC(=O)c3ccccc3)c(OC(=O)c3ccccc3)c1)[C@@H](OC(=O)c1ccccc1)C2)c1ccccc1 (some centres undefined)")
"inactive"
>>> classification("COc1ccc(C2OC3C(CO)OC(n4cnc5c(=O)[nH]c(N)nc54)C3O2)cc1 (centres undefined)")
"inactive"
>>> classification("Cc1onc(-c2ccccc2)c1C(=O)NC1C(=O)N2C(C(=O)O)C(C)(C)S[C@@H]12 (some centres undefined)")
"inactive"
